ASSAY_TARGET: mouse mu opioid receptor (mMOR) (Mus musculus, UniProt P42866)
Sequence (P42866 whole entry): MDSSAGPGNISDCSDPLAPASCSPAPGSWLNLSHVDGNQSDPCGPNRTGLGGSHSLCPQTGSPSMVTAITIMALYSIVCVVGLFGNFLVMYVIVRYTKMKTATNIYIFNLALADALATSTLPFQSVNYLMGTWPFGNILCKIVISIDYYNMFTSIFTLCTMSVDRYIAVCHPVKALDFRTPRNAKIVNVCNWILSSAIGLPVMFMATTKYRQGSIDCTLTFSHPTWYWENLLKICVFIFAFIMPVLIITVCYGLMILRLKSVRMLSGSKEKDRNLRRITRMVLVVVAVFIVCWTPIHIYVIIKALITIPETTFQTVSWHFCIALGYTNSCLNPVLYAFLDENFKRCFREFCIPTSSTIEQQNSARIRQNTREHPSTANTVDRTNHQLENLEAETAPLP
PROTOCOL_SUMMARY: Competition binding against 125I-IBNtxA, CHO cell membranes
PROTOCOL_CONDITIONS: affinity (Ki) mMOR, 125I-IBNtxA (0.1 nM), CHO membranes
ASSAY_READOUT: pKi
Friendly reminder that pKi comes from taking -log10 of the concentration in mol/L.

Consider the compound shown here: CC[C@@H]1CN2CC[C@]3(C(=O)Nc4ccccc43)[C@@H]2C[C@@H]1/C(=C\OC)C(=O)OC What is its recorded pKi?
5.30

====

ASSAY_TARGET: hDAT (Homo sapiens)
Sequence (Q01959 whole entry): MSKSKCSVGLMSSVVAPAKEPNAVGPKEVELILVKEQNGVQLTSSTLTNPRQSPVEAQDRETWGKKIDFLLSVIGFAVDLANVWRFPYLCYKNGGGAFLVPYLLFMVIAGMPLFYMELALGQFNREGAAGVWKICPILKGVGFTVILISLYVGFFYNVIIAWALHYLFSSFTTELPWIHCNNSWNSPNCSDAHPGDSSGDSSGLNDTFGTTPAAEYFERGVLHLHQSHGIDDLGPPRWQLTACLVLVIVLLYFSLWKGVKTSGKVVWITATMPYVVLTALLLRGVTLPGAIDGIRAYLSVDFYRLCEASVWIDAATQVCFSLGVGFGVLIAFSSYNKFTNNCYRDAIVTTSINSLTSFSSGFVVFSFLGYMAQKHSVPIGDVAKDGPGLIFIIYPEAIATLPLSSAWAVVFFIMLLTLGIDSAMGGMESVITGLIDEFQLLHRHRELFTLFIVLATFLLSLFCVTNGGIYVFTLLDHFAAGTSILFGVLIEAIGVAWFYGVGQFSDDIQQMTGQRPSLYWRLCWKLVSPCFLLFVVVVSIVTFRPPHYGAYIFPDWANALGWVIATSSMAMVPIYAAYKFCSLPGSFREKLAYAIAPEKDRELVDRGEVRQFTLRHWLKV
ASSAY_READOUT: Ki (µM)
Please reply with the bare figure in µM and do not write the unit itself.

Notebook entry, hDAT (Homo sapiens) assay: Ki of C=C[C@H]1CN2CCc3c([nH]c4cccc(OC)c34)[C@H]2C[C@@H]1/C(=C\OC)C(=O)OC [isopaynantheine] = ?
5.07
